Listed next: entries and their corresponding ΔTm.
# system-name: rat VMAT2-His (Rattus norvegicus, UniProt Q01827)
# Construct: The ORF of rat VMAT2 was subcloned into a pFastBac vector; His; made in house; host or cells: Sf9 insect cells (baculovirus)
# experiment-notes: Differential scanning fluorimetry (DSF) with CPM dye: change of melting temperature of purified VMAT2
# Type: binding
# condition-label: 12 µM
Counter-ions that a name gives are not always drawn.

| compound | ΔTm |
| --- | --- |
| CC(C(O)c1ccc(O)cc1)N1CCC(Cc2ccccc2)CC1.CC(C(O)c1ccc(O)cc1)N1CCC(Cc2ccccc2)CC1.O=C(O)C(O)C(O)C(=O)O (stereo not shown) [Ifenprodil tartrate] | 0,30 oC |
| Cl.Cl.OCCN1CCN(CC/C=C2/c3ccccc3Sc3ccc(Cl)cc32)CC1 [Zuclopenthixol dihydrochloride] | -0,36 oC |
| CC(C)NCC(O)c1ccc2ccccc2c1 (stereo not shown) [Pronethalol, Pronethalol hydrochloride] | -0,02 oC |
| CCSc1ccc2c(c1)N(CCCN1CCN(C)CC1)c1ccccc1S2.O=C(O)CC(O)C(=O)O.O=C(O)CC(O)C(=O)O [Thiethylperazine dimalate] | -0,61 oC |

----------
# system-name: rat VMAT2-His (Rattus norvegicus)
# Construct: The ORF of rat VMAT2 was subcloned into a pFastBac vector; His; made in house; host or cells: Sf9 insect cells (baculovirus)
# experiment-notes: Differential scanning fluorimetry (DSF) with CPM dye: change of melting temperature of purified VMAT2
# Format: binding
# condition-label: Table S2 dose response, compound 10 µM; read-out: ΔTm
Where a name gives a salt, the structure may show the parent alone.
assay-metric: ΔTm at 10 µM (°C)

| compound | result-number |
| --- | --- |
| O=C1Cc2cc(CCN3CCN(c4nsc5ccccc45)CC3)c(Cl)cc2N1 [Ziprasidone, Ziprasidone Hydrochloride] | 0.6 |
| Fc1ccc(C(OCCN2CCN(CCCc3ccccc3)CC2)c2ccc(F)cc2)cc1 [GBR 12909 dihydrochloride] | -1.07 |
| CN1CCCC(n2nc(Cc3ccc(Cl)cc3)c3ccccc3c2=O)CC1 (stereo not shown) [Azelastine HCl] | -0.6 |
| Clc1ccc(Cn2c(CN3CCCC3)nc3ccccc32)cc1 [Clemizole hydrochloride] | 0.33 |
| O=C(c1ccc(F)cc1)C1CCN(CCn2c(=O)[nH]c3ccccc3c2=O)CC1 [Ketanserin tartrate hydrate] | 1.16 |
| C[C@H](CCC(=O)O)[C@H]1CC[C@H]2[C@@H]3C(=O)C[C@@H]4CC(=O)CC[C@]4(C)[C@H]3CC(=O)[C@]12C [Dehydrocholic acid] | 0.39 |
| COc1ccc2[nH]c([S+]([O-])Cc3ncc(C)c(OC)c3C)nc2n1 (stereo not shown) [Tenatoprazole] | 4.77 |
| CN[C@@H]1C[C@@H](c2ccc(Cl)c(Cl)c2)c2ccccc21 [Indatraline hydrochloride] | -0.37 |
| CCCC(=O)Nc1ccc(OCC(O)CNC(C)C)c(C(C)=O)c1 (stereo not shown) [Acebutolol, Acebutolol hydrochloride] | 0.2 |
| OCc1cc(C(O)CNCCCCCCOCCCCc2ccccc2)ccc1O (stereo not shown) [Salmeterol] | 7.48 |
| C1CCC(C(CC2CCCCN2)C2CCCCC2)CC1 (stereo not shown) [Perhexiline maleate] | -0.18 |
| C=CCc1ccccc1OCC(O)CNC(C)C (stereo not shown) [Alprenolol hydrochloride] | 0.14 |
| CC(C)NCC(O)COc1ccc(CCOCC2CC2)cc1 (stereo not shown) [Betaxolol, Betaxolol hydrochloride] | 0.12 |
| CCCNCC(O)COc1ccccc1C(=O)CCc1ccccc1 (stereo not shown) [Propafenone, Propafenone hydrochloride] | 1.65 |
| OC(CCN1CCCCC1)(c1ccccc1)C1CC2C=CC1C2 (stereo not shown) [Biperiden, Biperiden hydrochloride] | 1.11 |
| CC(CCc1ccccc1)NCC(O)c1ccc(O)c(C(N)=O)c1 (stereo not shown) [Labetalol hydrochloride] | 0.27 |

----------
# system-name: rat VMAT2 (Rattus norvegicus)
# Sequence (Q01827 whole entry): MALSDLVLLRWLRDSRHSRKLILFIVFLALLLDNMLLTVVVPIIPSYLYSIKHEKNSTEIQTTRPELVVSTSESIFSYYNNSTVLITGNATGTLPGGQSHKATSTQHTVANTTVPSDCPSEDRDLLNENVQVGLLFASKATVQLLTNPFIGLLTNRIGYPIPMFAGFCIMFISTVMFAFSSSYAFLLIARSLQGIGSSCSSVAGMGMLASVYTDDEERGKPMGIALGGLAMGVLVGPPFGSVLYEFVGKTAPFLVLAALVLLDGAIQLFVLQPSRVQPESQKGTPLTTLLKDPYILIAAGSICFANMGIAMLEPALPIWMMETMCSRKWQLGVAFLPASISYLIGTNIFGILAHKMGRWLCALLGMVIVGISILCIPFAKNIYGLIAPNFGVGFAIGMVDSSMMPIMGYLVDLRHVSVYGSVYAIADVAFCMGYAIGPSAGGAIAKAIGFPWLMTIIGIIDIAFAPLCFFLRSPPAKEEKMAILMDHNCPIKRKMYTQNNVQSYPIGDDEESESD
# experiment-notes: FFN206 uptake assay in transfected Hek293 cells
# condition-label: read-out: IC50, rat VMAT2; Table S1, substrate uptake assays in transfected Hek293 cells
pIC50: −log10 of the molar value. Counter-ions that a name gives are not always drawn.
assay-metric: pIC50

| compound | system-name | result |
| --- | --- | --- |
| CCCC(=O)Nc1ccc(OCC(O)CNC(C)C)c(C(C)=O)c1 (stereo not shown) [Acebutolol, Acebutolol hydrochloride] | rat VMAT2 (Rattus norvegicus) | > 5.00 |

----------
Listed next: entries and their corresponding ΔTm.
# system-name: rat VMAT2-His (Rattus norvegicus)
# Construct: The ORF of rat VMAT2 was subcloned into a pFastBac vector; His; made in house; host or cells: Sf9 insect cells (baculovirus)
# experiment-notes: Differential scanning fluorimetry (DSF) with CPM dye: change of melting temperature of purified VMAT2
# Assay type: binding
# condition-label: 270 µM
# Protocol: To screen purified VMAT2 by DSF we expressed the rat VMAT2 protein, as VMAT2-His, in SF9 insect cells using the baculovirus expression system. […] Protein melting curves were determined using a LightCycler 480 ii RT-PCR system (Roche), with a temperature ramp increasing from 25 to 95 °C at a rate of 2 °C/min. […]
Structures can show the parent of a compound that is named as a salt.
assay-metric: ΔTm

| molecule | system-name | assay-metric | result |
| --- | --- | --- | --- |
| CCCCCCC[N+](CC)(CC)CCCCc1ccc(Cl)cc1.Cc1ccc(S(=O)(=O)[O-])cc1 [Clofilium tosylate] | rat VMAT2-His (Rattus norvegicus) | ΔTm | -2,26 oC |
| CC(C(O)c1ccc(O)cc1)N1CCC(Cc2ccccc2)CC1.CC(C(O)c1ccc(O)cc1)N1CCC(Cc2ccccc2)CC1.O=C(O)C(O)C(O)C(=O)O (centres unmarked) [Ifenprodil tartrate] | rat VMAT2-His (Rattus norvegicus) | ΔTm | 0,41 oC |
| CC(C)NCC(O)c1ccc2ccccc2c1 (centres unmarked) [Pronethalol, Pronethalol hydrochloride] | rat VMAT2-His (Rattus norvegicus) | ΔTm | 3,75 oC |
| CCSc1ccc2c(c1)N(CCCN1CCN(C)CC1)c1ccccc1S2.O=C(O)CC(O)C(=O)O.O=C(O)CC(O)C(=O)O [Thiethylperazine dimalate] | rat VMAT2-His (Rattus norvegicus) | ΔTm | -3,69 oC |
| Cl.Cl.OCCN1CCN(CC/C=C2/c3ccccc3Sc3ccc(Cl)cc32)CC1 [Zuclopenthixol dihydrochloride] | rat VMAT2-His (Rattus norvegicus) | ΔTm | -1,51 oC |

----------
# system-name: rat VMAT2-His (Rattus norvegicus, UniProt Q01827)
# Construct: The ORF of rat VMAT2 was subcloned into a pFastBac vector; His; made in house; host or cells: Sf9 insect cells (baculovirus)
# experiment-notes: Differential scanning fluorimetry (DSF) with CPM dye: change of melting temperature of purified VMAT2
# Assay type: binding
# condition-label: 33 µM
Where a name gives a salt, the structure may show the parent alone.
assay-metric: ΔTm

| molecule | assay-metric | result |
| --- | --- | --- |
| CC(C)NCC(O)c1ccc2ccccc2c1 (stereo not shown) [Pronethalol, Pronethalol hydrochloride] | ΔTm | 0,48 oC |
| Cl.Cl.OCCN1CCN(CC/C=C2/c3ccccc3Sc3ccc(Cl)cc32)CC1 [Zuclopenthixol dihydrochloride] | ΔTm | 0,03 oC |
| CCSc1ccc2c(c1)N(CCCN1CCN(C)CC1)c1ccccc1S2.O=C(O)CC(O)C(=O)O.O=C(O)CC(O)C(=O)O [Thiethylperazine dimalate] | ΔTm | -0,78 oC |
| CC(C(O)c1ccc(O)cc1)N1CCC(Cc2ccccc2)CC1.CC(C(O)c1ccc(O)cc1)N1CCC(Cc2ccccc2)CC1.O=C(O)C(O)C(O)C(=O)O (stereo not shown) [Ifenprodil tartrate] | ΔTm | 0,14 oC |

----------
Listed next: entries and their corresponding ΔTm at 33 µM.
# system-name: rat VMAT2-His (Rattus norvegicus)
# Construct: The ORF of rat VMAT2 was subcloned into a pFastBac vector; His; made in house; host or cells: Sf9 insect cells (baculovirus)
# experiment-notes: Differential scanning fluorimetry (DSF) with CPM dye: change of melting temperature of purified VMAT2
# Format: binding
# condition-label: Table S2 dose response, compound 3,33 µM; read-out: ΔTm
Counter-ions that a name gives are not always drawn.

| molecule | ΔTm at 33 µM |
| --- | --- |
| COc1ccc2[nH]c([S+]([O-])Cc3ncc(C)c(OC)c3C)nc2n1 (centres unmarked) | 4.85 °C |
| CC(C)n1c(/C=C/C(O)CC(O)CC(=O)O)c(-c2ccc(F)cc2)c2ccccc21 (centres unmarked) [Fluvastatin, Fluvastatin sodium salt] | 0.66 °C |
| O=C1Cc2cc(CCN3CCN(c4nsc5ccccc45)CC3)c(Cl)cc2N1 [Ziprasidone, Ziprasidone Hydrochloride] | 0.58 °C |
| Fc1ccc(C(OCCN2CCN(CCCc3ccccc3)CC2)c2ccc(F)cc2)cc1 [GBR 12909 dihydrochloride] | -0.34 °C |
| C=CCc1ccccc1OCC(O)CNC(C)C (centres unmarked) [Alprenolol hydrochloride] | 0.02 °C |
| CCCc1nn(C)c2c(=O)[nH]c(-c3cc(S(=O)(=O)N4CCN(C)CC4)ccc3OCC)nc12 | 0.09 °C |
| CC(C)COCC(CN(Cc1ccccc1)c1ccccc1)N1CCCC1 (centres unmarked) [Bepridil hydrochloride] | -0.93 °C |
| CCCCC(CC)CN1CN(CC(CC)CCCC)CC(C)(N)C1 (centres unmarked) | -0.07 °C |
| C[C@H](CCC(=O)O)[C@H]1CC[C@H]2[C@@H]3[C@H](O)C[C@@H]4C[C@H](O)CC[C@]4(C)[C@H]3CC[C@]12C | 0.19 °C |
| COc1ccc(CN2CCN(C(c3ccc(F)cc3)c3ccc(F)cc3)CC2)c(OC)c1OC [Lomerizine, Lomerizine hydrochloride] | -1.47 °C |
| COc1cc2c(cc1OC)C1CC(=O)C(CC(C)C)CN1CC2 (centres unmarked) | 5.92 °C |
| OC(c1cc(C(F)(F)F)nc2c(C(F)(F)F)cccc12)C1CCCCN1 (centres unmarked) [Mefloquine hydrochloride] | -0.11 °C |
| OCc1cc(C(O)CNCCCCCCOCCCCc2ccccc2)ccc1O (centres unmarked) | 7.04 °C |
| CC(C)NCC(O)COc1ccc(CCOCC2CC2)cc1 (centres unmarked) [Betaxolol, Betaxolol hydrochloride] | 0.01 °C |
| CCCC(=O)Nc1ccc(OCC(O)CNC(C)C)c(C(C)=O)c1 (centres unmarked) [Acebutolol, Acebutolol hydrochloride] | 0.03 °C |
| Cc1cccc(C)c1NC(=O)CN1CCN(CCCC(c2ccc(F)cc2)c2ccc(F)cc2)CC1 | 0.16 °C |
| CC(C)(C)NC(=O)[C@@H]1C[C@@H]2CCCC[C@@H]2CN1C[C@@H](O)[C@H](Cc1ccccc1)NC(=O)[C@H](CC(N)=O)NC(=O)c1ccc2ccccc2n1 [Saquinavir mesylate] | -0.65 °C |
